Target desc: MAb 445-2
Procedure summary: MAb inhibition ELISA; soluble inhibitor of MAb binding to coated hG34(16-34)-Gly 35-BSA
Where no end group is shown, it is not given here. [ ]: non-standard residue; d: D form. pGlu = O=C1CC[C@@H](C(=O)O)N1
Measurement type: IC50 (µM)

1 = [pGlu]GPWLEEEEEAYGWMDFG [human glycine-extended gastrin-17 (G17-Gly)]
2 = CPPPPSSYGWMDFG [hG17 (12-17)-Gly18 peptide (immunogen peptide …)]
# input Looking at 1 and 2 , which one comes out lower in IC50 terms? Pick one and reply with its label.
# output 1
